# protocolDescription: xn = mol fraction of the nth substance listed, in the solute-free solvent
# testParameters: 313.15 K; x2 = 0.2
# binarize solubility (g/100 g solution): threshold 3 inclusive, high side satisfied, low side not satisfied

O=C(O)C1CSCN1 (stereo not given) + O + CC#N | not satisfied
CCCCOc1ccc(C(=O)CCN2CCCCC2)cc1.Cl + CCO + O | satisfied
O=C1CCc2ccc(OCCCCN3CCN(c4cccc(Cl)c4Cl)CC3)cc2N1 + CCC(C)=O + CCOC(C)=O | not satisfied
O=C(O)c1ccc(C(=O)O)o1 + O + COCCOC | not satisfied
COC1=CC(=O)CC(C)C12Oc1c(Cl)c(OC)cc(OC)c1C2=O (stereo not given) + CC(=O)CC(C)C + CC(C)O | not satisfied

----------
# protocolDescription: xn = mol fraction of the nth substance listed, in the solute-free solvent
# testParameters: 293.15 K; x2 = 0.3
Listed compounds paired with reported solubility (g/100 g solution)
reportedMetric: solubility (g/100 g solution)

COC1=CC(=O)CC(C)C12Oc1c(Cl)c(OC)cc(OC)c1C2=O (stereo not drawn) + CCC(C)=O + CC(C)O | 0.668
COC1=CC(=O)CC(C)C12Oc1c(Cl)c(OC)cc(OC)c1C2=O (stereo not drawn) + CC(C)=O + CC(C)O | 0.787
CCCCOc1ccc(C(=O)CCN2CCCCC2)cc1.Cl + CCO + O | 43

----------
# protocolDescription: xn = mol fraction of the nth substance listed, in the solute-free solvent
# testParameters: 328.15 K; x2 = 0.1
reportedMetric: solubility (g/100 g solution)

O=C(O)c1ccc(C(=O)O)o1 + C1COCCO1 + O | 2.92
O=C(O)c1ccc(C(=O)O)o1 + C1CCOC1 + O | 2.88
O=C(O)c1ccc(C(=O)O)o1 + O + COCCOCCOC | 1.67
O=C(O)c1ccc(C(=O)O)o1 + O + COCCOC | 1.75

----------
# protocolDescription: xn = mol fraction of the nth substance listed, in the solute-free solvent
# testParameters: 303.15 K; x2 = 0.8
Attribute: solubility (g/100 g solution)
reportedMetric: solubility (g/100 g solution)

O=C(O)c1ccc(C(=O)O)o1 + O + COCCOC | 4.68
CCCCOc1ccc(C(=O)CCN2CCCCC2)cc1.Cl + CCO + CCOC(C)=O | 37.8
O=C(O)C1CSCN1 (stereo not drawn) + O + CC#N | 1.58
O=C1CCc2ccc(OCCCCN3CCN(c4cccc(Cl)c4Cl)CC3)cc2N1 + CCC(C)=O + CC(C)=O | 2.99
CC(=O)OC(c1ccccc1)C(Cl)(Cl)Cl (stereo not drawn) + CCO + O | 6.07
O=C(O)c1ccc(C(=O)O)o1 + O + COCCOCCOC | 5.55
CC(=O)OC(c1ccccc1)C(Cl)(Cl)Cl (stereo not drawn) + CC(=O)O + O | 9.47
O=C(O)c1ccc(C(=O)O)o1 + C1CCOC1 + O | 5.68
O=C1CCc2ccc(OCCCCN3CCN(c4cccc(Cl)c4Cl)CC3)cc2N1 + CCC(C)=O + CCOC(C)=O | 2.72
O=C(O)c1ccc(C(=O)O)o1 + C1COCCO1 + O | 2.38
CCCCOc1ccc(C(=O)CCN2CCCCC2)cc1.Cl + CCO + CCCCCC | 36.8
COC1=CC(=O)CC(C)C12Oc1c(Cl)c(OC)cc(OC)c1C2=O (stereo not drawn) + CCC(C)=O + CC(C)O | 2.6
CCCCOc1ccc(C(=O)CCN2CCCCC2)cc1.Cl + CCO + O | 47.2
CCCCOc1ccc(C(=O)CCN2CCCCC2)cc1.Cl + CO + C1CCOC1 | 52.1
O=C1CCc2ccc(OCCCCN3CCN(c4cccc(Cl)c4Cl)CC3)cc2N1 + CCC(C)=O + CCCO | 4.03
COC1=CC(=O)CC(C)C12Oc1c(Cl)c(OC)cc(OC)c1C2=O (stereo not drawn) + CC(=O)CC(C)C + CC(C)O | 1.1
COC1=CC(=O)CC(C)C12Oc1c(Cl)c(OC)cc(OC)c1C2=O (stereo not drawn) + CC(C)=O + CC(C)O | 3.38
CC(=O)OC(c1ccccc1)C(Cl)(Cl)Cl (stereo not drawn) + CC(C)O + O | 6.3

----------
# protocolDescription: xn = mol fraction of the nth substance listed, in the solute-free solvent
# testParameters: 303.15 K; x2 = 0.5
solubility (g/100 g solution): recorded values
reportedMetric: solubility (g/100 g solution)

O=C(O)C1CSCN1 (stereo not given) + O + CC#N | 0.312
CCCCOc1ccc(C(=O)CCN2CCCCC2)cc1.Cl + CCO + CCOC(C)=O | 25.2
CC(=O)OC(c1ccccc1)C(Cl)(Cl)Cl (stereo not given) + CC(C)O + O | 3.57
O=C1CCc2ccc(OCCCCN3CCN(c4cccc(Cl)c4Cl)CC3)cc2N1 + CCC(C)=O + CC(C)=O | 2.71
CC(=O)OC(c1ccccc1)C(Cl)(Cl)Cl (stereo not given) + CC(=O)O + O | 1.62
COC1=CC(=O)CC(C)C12Oc1c(Cl)c(OC)cc(OC)c1C2=O (stereo not given) + CCC(C)=O + CC(C)O | 1.59
COC1=CC(=O)CC(C)C12Oc1c(Cl)c(OC)cc(OC)c1C2=O (stereo not given) + CC(C)=O + CC(C)O | 1.85
CCCCOc1ccc(C(=O)CCN2CCCCC2)cc1.Cl + CCO + CCCCCC | 22.6
O=C(O)c1ccc(C(=O)O)o1 + O + COCCOCCOC | 5.13
O=C1CCc2ccc(OCCCCN3CCN(c4cccc(Cl)c4Cl)CC3)cc2N1 + CCC(C)=O + CCCO | 4.13

----------
# protocolDescription: xn = mol fraction of the nth substance listed, in the solute-free solvent
# testParameters: 303.15 K; x2 = 0.2
The label depends only on solubility (g/100 g solution): 1 if it is at least 10, -1 if it is smaller.

CCCCOc1ccc(C(=O)CCN2CCCCC2)cc1.Cl + CCO + CCOC(C)=O | 1
CCCCOc1ccc(C(=O)CCN2CCCCC2)cc1.Cl + CO + C1CCOC1 | 1
O=C(O)c1ccc(C(=O)O)o1 + C1COCCO1 + O | -1
O=C(O)c1ccc(C(=O)O)o1 + O + COCCOCCOC | -1
CCCCOc1ccc(C(=O)CCN2CCCCC2)cc1.Cl + CCO + CCCCCC | -1

----------
# protocolDescription: xn = mol fraction of the nth substance listed, in the solute-free solvent
# testParameters: 288.15 K; x2 = 0.9
Below, each of the compounds is paired with its reported solubility (g/100 g solution) value.
reportedMetric: solubility (g/100 g solution)

O=C1CCc2ccc(OCCCCN3CCN(c4cccc(Cl)c4Cl)CC3)cc2N1 + CCC(C)=O + CC(C)=O | 1.72
CC(=O)OC(c1ccccc1)C(Cl)(Cl)Cl (stereo not given) + CC(=O)O + O | 7.43
CCCCOc1ccc(C(=O)CCN2CCCCC2)cc1.Cl + CCO + CCCCCC | 33
CC(=O)OC(c1ccccc1)C(Cl)(Cl)Cl (stereo not given) + CCO + O | 3.42
CCCCOc1ccc(C(=O)CCN2CCCCC2)cc1.Cl + CCO + CCOC(C)=O | 33.2

----------
# protocolDescription: xn = mol fraction of the nth substance listed, in the solute-free solvent
# testParameters: 283.15 K; x2 = 0.3
reportedMetric: solubility (g/100 g solution)

CCCCOc1ccc(C(=O)CCN2CCCCC2)cc1.Cl + CCO + CCOC(C)=O | 10.6
COC1=CC(=O)CC(C)C12Oc1c(Cl)c(OC)cc(OC)c1C2=O (stereo unspecified) + CCC(C)=O + CC(C)O | 0.497
CCCCOc1ccc(C(=O)CCN2CCCCC2)cc1.Cl + CCO + CCCCCC | 8.72
CCCCOc1ccc(C(=O)CCN2CCCCC2)cc1.Cl + CCO + O | 36.5
O=C1CCc2ccc(OCCCCN3CCN(c4cccc(Cl)c4Cl)CC3)cc2N1 + CCC(C)=O + CCOC(C)=O | 0.845
COC1=CC(=O)CC(C)C12Oc1c(Cl)c(OC)cc(OC)c1C2=O (stereo unspecified) + CC(=O)CC(C)C + CC(C)O | 0.353
O=C(O)C1CSCN1 (stereo unspecified) + O + CC#N | 0.0323
O=C1CCc2ccc(OCCCCN3CCN(c4cccc(Cl)c4Cl)CC3)cc2N1 + CCC(C)=O + CCCO | 1.52
O=C1CCc2ccc(OCCCCN3CCN(c4cccc(Cl)c4Cl)CC3)cc2N1 + CCC(C)=O + CC(C)=O | 1.16
COC1=CC(=O)CC(C)C12Oc1c(Cl)c(OC)cc(OC)c1C2=O (stereo unspecified) + CC(C)=O + CC(C)O | 0.587
CCCCOc1ccc(C(=O)CCN2CCCCC2)cc1.Cl + CO + C1CCOC1 | 13.4
